B1: SLC22A15 (parent)
chain: IAQYALLGYFIRSWRTLAILVNLQ

Variants of: B1
Assay: protein stability index of a GFP-peptide fusion (GPS, HEK-293T) (PSI 1-6); higher = more stable;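 further: lentivirally expressed fusions sorted by FACS into six bins by GFP to DsRed ratio, PSI derived from sequencing read proportions per bin multiplied by bin number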
Conditions: c terminus: a fixed tail appended
Output fulfilled for protein stability index not less than 3; output not fulfilled otherwise.

Kindly determine if protein stability index recorded for I11Y is above or exactly 3. not fulfilled

Can you handle S13I next? fulfilled

Can you handle L17T next? fulfilled

Can you handle A5R next? not fulfilled

Can you handle L20Y next? not fulfilled

Can you handle T16Y next? fulfilled

Can you handle N22E next? not fulfilled

Can you handle F10I next? fulfilled

Numbers sourced from the supplement of paper PMC10567573.
